molecular target: anti-A045 antibody (Fibronectin PET); assay: peptide competition assay in 6% BSA
Where no end group is shown, it is not given here.
Reported Metric: IC50 (nM)
The answer is to be given in nM; state only the numeric part.

Returns the measured IC50 for the input binder. Input: CTFYQIGDSWEK-NH2 [A045 peptide (Fibronectin), …-NH2]
1
